- Test system: XIAP BIR3 (Homo sapiens)
- Construct: covering amino acids 241 to 356; XIAP BIR3
- Sequence (P98170 241-356): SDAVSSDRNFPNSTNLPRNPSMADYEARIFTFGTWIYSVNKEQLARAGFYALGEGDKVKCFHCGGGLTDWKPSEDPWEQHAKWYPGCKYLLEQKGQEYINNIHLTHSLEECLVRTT
- Procedure details: XIAP BIR3 binding assay (DELFIA), displacement of SMAC peptide
- Condition label: GST-fusion BIR3 domain (aa 241 to 356) 10 nM, SMAC peptide 10 nM; activity of the (S)-isomers
# IC50 per entry
Reported endpoint: IC50 (nM)

[[record]]
molecule = "CNC(C)C(=O)Nc1ccc(-c2cncnc2C(C)C)c(C#Cc2ccc3ccccc3c2)n1 (centres unmarked)"
test_system = "XIAP BIR3 (Homo sapiens)"
numeric_result = 767

[[record]]
molecule = "CC(N)C(=O)Nc1ccc(-c2cccc(F)c2)c(C#Cc2ccccc2)n1 (centres unmarked)"
test_system = "XIAP BIR3 (Homo sapiens)"
numeric_result = 1630

[[record]]
molecule = "CC(N)C(=O)Nc1cccc(C#Cc2ccc3cc[nH]c3c2)n1 (centres unmarked)"
test_system = "XIAP BIR3 (Homo sapiens)"
numeric_result = 2730

[[record]]
molecule = "CNC(C)C(=O)Nc1ccc(NC(=O)C2CCOCC2)c(C#Cc2ccccc2)n1 (centres unmarked)"
test_system = "XIAP BIR3 (Homo sapiens)"
numeric_result = 1520

[[record]]
molecule = "Cc1cc(C)cc(C#Cc2cccc(NC(=O)C(C)N)n2)c1 (centres unmarked)"
test_system = "XIAP BIR3 (Homo sapiens)"
numeric_result = 2190

[[record]]
molecule = "CNC(C)C(=O)Nc1ccc(-c2c(-c3ccncc3)nc3cc(C)ccn23)c(C#Cc2ccc(-c3ccon3)cc2)n1 (centres unmarked)"
test_system = "XIAP BIR3 (Homo sapiens)"
numeric_result = 61

[[record]]
molecule = "CNC(C)C(=O)Nc1ccc(-c2cc(C#N)ccc2Cl)c(C#Cc2ccccc2)n1 (centres unmarked)"
test_system = "XIAP BIR3 (Homo sapiens)"
numeric_result = 406

[[record]]
molecule = "CNC(C)C(=O)Nc1ccc(-c2cncc3ccccc23)c(C#Cc2ccc(OC)cc2)n1 (centres unmarked)"
test_system = "XIAP BIR3 (Homo sapiens)"
numeric_result = 1150

[[record]]
molecule = "CC(N)C(=O)Nc1cc2ccccc2c(C#Cc2ccc(Cl)cc2)n1 (centres unmarked)"
test_system = "XIAP BIR3 (Homo sapiens)"
numeric_result = 4240

[[record]]
molecule = "CNC(C)C(=O)Nc1ccc(-c2c(C)nc3ccccn23)c(C#Cc2ccc3ncccc3c2)n1 (centres unmarked)"
test_system = "XIAP BIR3 (Homo sapiens)"
numeric_result = 200

[[record]]
molecule = "CNC(C)C(=O)Nc1ccc(-c2cncnc2)c(C#Cc2ccc3c(c2)C(=O)CCO3)n1 (centres unmarked)"
test_system = "XIAP BIR3 (Homo sapiens)"
numeric_result = 1210

[[record]]
molecule = "CNC(C)C(=O)Nc1ccc(-c2c(-c3ccncc3)nc3cc(C)ccn23)c(C#Cc2ccc3c(ccc(=O)n3C)c2)n1 (centres unmarked)"
test_system = "XIAP BIR3 (Homo sapiens)"
numeric_result = 253

[[record]]
molecule = "CNC(C)C(=O)Nc1ccc(-c2cnn3ccccc23)c(C#Cc2ccccc2)n1 (centres unmarked)"
test_system = "XIAP BIR3 (Homo sapiens)"
numeric_result = 55

[[record]]
molecule = "CNC(C)C(=O)Nc1ccc(-c2ccc3c(c2)C(=O)NC3=O)c(C#Cc2ccccc2)n1 (centres unmarked)"
test_system = "XIAP BIR3 (Homo sapiens)"
numeric_result = 103

[[record]]
molecule = "CC(N)C(=O)Nc1ccc(-c2cc(F)cc(F)c2)c(C#Cc2ccccc2)n1 (centres unmarked)"
test_system = "XIAP BIR3 (Homo sapiens)"
numeric_result = 1550

[[record]]
molecule = "CNC(C)C(=O)Nc1ccc(-c2c(C)cncc2C)c(C#Cc2ccc3ncccc3c2)n1 (centres unmarked)"
test_system = "XIAP BIR3 (Homo sapiens)"
numeric_result = 287

[[record]]
molecule = "CNC(C)C(=O)Nc1ccc(-c2cncc(N)c2)c(C#Cc2ccccc2)n1 (centres unmarked)"
test_system = "XIAP BIR3 (Homo sapiens)"
numeric_result = 101

